Tested on: SNB-75
Experiment: NCI tumour cell line growth inhibition, 48 h
Calls of active or inactive are those of the source. No stated cut-off is given here; in the data, active = GI50 up to about 1.1 µM and inactive = higher.
Listed below: GI50 values for each entry.

Worked examples follow.
compound	assay-target	recorded-endpoint	value
CN1Nc2ccccc2CC1=O	SNB-75	GI50	> 100 µM (inactive)
CCCCCCCCCCCCCCCCCCNc1nc(=O)n(C2CC(O)C(COP(=O)(O)OCC(COP(=O)(O)OC3C(CO)OC(n4ccc(N)nc4=O)C3O)OCCCCCCCCCCCCCCCCCC)O2)cc1F (stereo unspecified)	SNB-75	GI50	80.5 µM (inactive)
O=C1/C(=C/c2cccc(Br)c2)Cc2ccccc21	SNB-75	GI50	> 100 µM (inactive)

Item: Cc1onc(-c2c(F)cccc2Cl)c1C(=O)N[C@@H]1C(=O)N2[C@@H]1SC(C)(C)[C@@H]2C(=O)O | GI50: > 100 µM (inactive)

Reported GI50 of COc1cccc(N(CN2CC=CC2=O)C(C)=O)c1 : > 100 µM (inactive)

Short answer for O=C1CC(NC2CC(=O)c3c(Br)sc(Br)c32)c2c(Br)sc(Br)c21 (stereo unspecified) : GI50 was 15.7 µM (inactive)

Entry under test: O=C1OCC2=C1C(c1ccc(Cl)cc1)c1cc3c(cc1O2)OCO3 (stereo unspecified) . Its GI50 was 2.49 µM (inactive)
